Assay: Pharmacokinetics test (hepatic microsome stability test)
Settings: human hepatic microsome 1 mg/mL, 37° C., 60 min, 1 μmol/L
reportedMetric: Remaining rate (%)

{"entrySmiles": "N#Cc1ccc(CCCC(=O)O)c(NC(=O)[C@@H]2C[C@]23CCOc2ccc(C(=O)NC4CCCC4)cc23)c1", "Remaining rate (%)": 96}
{"entrySmiles": "COCCNC(=O)c1ccc2c(c1)[C@]1(CC2)C[C@H]1C(=O)Nc1cc(C#N)ccc1CCCC(=O)O", "Remaining rate (%)": 100}
{"entrySmiles": "N#Cc1ccc(CCCC(=O)O)c(NC(=O)[C@@H]2C[C@]23CCOc2ccc(-c4ccc(F)cn4)cc23)c1", "Remaining rate (%)": 75}
{"entrySmiles": "CNC(=O)c1ccc2c(c1)[C@]1(CCO2)C[C@H]1C(=O)Nc1cc(C#N)ccc1CCCC(=O)O", "Remaining rate (%)": 94}
{"entrySmiles": "CC(C)(C)NC(=O)c1ccc2c(c1)[C@]1(CCO2)C[C@H]1C(=O)Nc1cc(C#N)ccc1CCCC(=O)O", "Remaining rate (%)": 91}
{"entrySmiles": "Cc1ccc(-c2ccc3c(c2)[C@]2(CCO3)C[C@H]2C(=O)Nc2cc(C#N)ccc2CCCC(=O)O)cn1", "Remaining rate (%)": 80}
{"entrySmiles": "N#Cc1ccc(CCCC(=O)O)c(NC(=O)[C@@H]2C[C@]23CCOc2ccc(-c4cccnn4)cc23)c1", "Remaining rate (%)": 86}
